Provenance of the data: ChEMBL document CHEMBL1157539

Tested on: Plasmodium falciparum
measurementNotes: GSK_TCMDC: Inhibition of Plasmodium falciparum 3D7 in whole red blood cells, using parasite LDH activity as an index of growth. Test compounds present at 2uM
Format: functional
Inhibition reference
valueKind: Inhibition (%)

compound	valueKind	quantitativeResult
CCOc1ccc(C(=O)Nc2ccc(-c3nc4ccccc4[nH]3)cc2)cc1[N+](=O)[O-]	Inhibition	100
COc1ccc2nccc([C@@H](O)CN3CCC(NCc4cc5ccccc5nc4O)CC3)c2c1.Cl	Inhibition	97
COc1ccccc1NC(=O)Nc1ccc(-c2cccc(-c3nc4ccccc4[nH]3)c2)cc1	Inhibition	100
N#Cc1ccc2[nH]c(-c3ccccc3)nc2c1	Inhibition	95
CCOC(=O)c1[nH]c2cc(Cl)cc(Cl)c2c1/C=C/C(=O)Nc1ccc(-c2cnc(NC(C)=O)[nH]2)cc1	Inhibition	100
O=C(O)C(F)(F)F.O=[N+]([O-])c1cccc(CNCC2CCN(Cc3ccc(Cl)c(Cl)c3)CC2)c1	Inhibition	100
CCN(CCN(C)C)Cc1ccc(-c2ccc(NS(=O)(=O)c3cccc(Cl)c3)cc2)cc1.O=C(O)C(F)(F)F	Inhibition	97
COc1ccc(NC(=O)c2ccc(Br)c(C)c2)cc1N1CCN(CCCc2c[nH]c3ccccc23)CC1	Inhibition	100
CCOc1cc(NCCCNc2ncc([N+](=O)[O-])cc2C)nc2ccccc12	Inhibition	84
Cl.Oc1ccc2c(CNCCc3ccccc3)c(O)ccc2c1CNCCc1ccccc1	Inhibition	99
CCCc1cc(Cc2cnc(N)nc2N)ccc1OCCCCCC(=O)OCC	Inhibition	97
CC(C)OC(=O)c1cccnc1SCC(=O)Nc1ccc(C(F)(F)F)cc1Cl	Inhibition	97
O=C(/C=C/c1ccc(Cl)c(Cl)c1)NCCCCCN1CCCN(C(=S)Nc2ccc(Cl)c(Cl)c2)CC1	Inhibition	96
COc1cccc(Nc2nc(C)cc(NCc3ccc(-c4c(C)noc4C)cc3)n2)c1	Inhibition	98
CO/C(=C\C=C\c1cc2cc(Cl)c(Cl)cc2[nH]1)C(=O)NC1CC2CCCC(C1)N2C (configuration not stated)	Inhibition	93
NC1CCCN(Cc2cccc(-c3ccc(-c4nc5cc(F)ccc5[nH]4)cc3)c2)C1.O=C(O)C(F)(F)F (configuration not stated)	Inhibition	100
CCn1c(CN2CCC(C)CC2)nc2cc(NC(=O)c3cccs3)ccc21	Inhibition	91
Cc1cc(N)c2cc(NC(=O)c3cc4ccccc4s3)ccc2n1	Inhibition	100
COc1cc2nc(NC3CCN(Cc4ccccc4)CC3)nc(N)c2cc1OC	Inhibition	100
Cc1nc(C)n(CC(=O)Nc2cccc(-c3cccc(-c4nc5cc(C(F)(F)F)ccc5[nH]4)c3)c2)n1	Inhibition	100
CCOC(=O)C(C(=O)OCC)c1nc(C)ns1	Inhibition	99
Cc1sc(NC(=O)Cc2cccc(C(F)(F)F)c2)nc1-c1cccc(Cl)c1	Inhibition	100
COc1ccccc1C1CCN(C2CCC(NC(=O)/C=C/c3ccc(OC(F)(F)F)cc3)CC2)CC1 (configuration not stated)	Inhibition	82
Cc1cc(N[C@@H](Cc2ccccc2)C(=O)NCCOc2ccccc2)nc(NCCc2ccccc2)n1.O=C(O)C(F)(F)F	Inhibition	100
CCOc1cc(C(=O)NC2CCN(Cc3ccccc3)C2)ccc1-c1nc2cc(Cl)ccc2[nH]1 (configuration not stated)	Inhibition	98
N#Cc1cc(C(=O)Nc2ccccc2)c(N)nc1SCC(=O)Nc1ccc(Br)cc1	Inhibition	100
O=C(c1cc2nc3c(c(C(F)(F)F)n2n1)CCc1ccccc1-3)N1CCN2CCCC2C1 (configuration not stated)	Inhibition	94
CCN(CC)CCN(Cc1ccc(-c2ccc(C(F)(F)F)cc2)cc1)C(=O)Cn1c(SCc2ccc(F)cc2)nc(=O)c2sccc21.O=C(O)C(O)C(O)C(=O)O	Inhibition	100
Cc1nc(C)c(CC(=O)Nc2ccc(-c3cccc(-c4nc5cc(C(F)(F)F)ccc5[nH]4)c3)cc2)s1	Inhibition	86
c1cn(-c2ccc(CNc3nccc(Nc4ccc(OCCN5CCOCC5)cc4)n3)cc2)cn1	Inhibition	100
CC1CN(CC(O)Cn2c3ccc(Br)cc3c3cc(Br)ccc32)CC(C)O1 (configuration not stated)	Inhibition	100
CCCCCN1CCCCC(NS(=O)(=O)c2ccc(C(=O)Nc3cccc(C(F)(F)F)c3)cc2)C1.O=C(O)C(F)(F)F (configuration not stated)	Inhibition	93
Cc1cc(NC(=O)c2ccco2)ccc1OC1CCN(Cc2ccccc2)CC1.O=C(O)C(F)(F)F	Inhibition	93
COc1ccc(C=C2SC(=O)N=C2Nc2ccccc2)c(OC)c1	Inhibition	91
CS(=O)(=O)CCNCc1cc(-c2cc3ncnc(Nc4ccc(OCc5cccc(F)c5)c(Cl)c4)c3s2)cs1	Inhibition	99
COc1cccc(C2=CC(C)(C)Oc3cc(OCCN(C)C)ccc32)c1.Cl	Inhibition	97
Cc1nc(Nc2cc(Cl)ccc2O)nc(Nc2cc(Cl)ccc2O)c1[N+](=O)[O-]	Inhibition	98
